Biological target: T1, human TL1A extracellular domain with N-terminal HIS and FLAG tag (human, UniProt O95150 72-251)
T1 construct: the whole entry is named
T1 sequence: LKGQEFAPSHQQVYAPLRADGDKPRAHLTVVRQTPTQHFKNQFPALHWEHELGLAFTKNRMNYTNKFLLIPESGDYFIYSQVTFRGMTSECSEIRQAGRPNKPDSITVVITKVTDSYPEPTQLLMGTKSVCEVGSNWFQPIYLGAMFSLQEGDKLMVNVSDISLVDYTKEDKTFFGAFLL
Assay: SPR Run 5, Ab from supernatant captured on Protein A, TL1A 5 ug/mL, timepoint 44
resultType: TL1A Binding Level (Early) (RU)
Give the quantity in RU, number only.

Solved entries (count: 2):
{"columns": ["binder", "resultType", "recordedValue"],
 "data": [
  ["320-420 (antibody, human IgG1, name in Kabat numbering, V domains shown, human IgG1, lambda) VH: QVQLVQSGAEVKKPGASVKVSCKASGYTWTSYDINWVRQAPGQGLEWMGWLNPNSGNTGYAQKFQGRVTMTADRSTSTAYMELSSLRSEDTAVYYCAREVPETAAFEYWGQGTLVTVSS VL: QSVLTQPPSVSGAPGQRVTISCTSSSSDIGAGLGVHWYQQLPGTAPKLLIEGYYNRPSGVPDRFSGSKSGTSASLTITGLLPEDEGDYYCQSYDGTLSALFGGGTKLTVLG", "TL1A Binding Level (Early)", 11],
  ["320-431 (antibody, human IgG1, name in Kabat numbering, V domains shown, human IgG1, lambda) VH: QVQLVQSGAEVKKPGASVKVSCKASGYTFTAYDINWVRQAPGQGLEWMGWLNPNSGNTGYAQKFQGRVTMTADRSTSTAYMELSSLRSEDTAVYYCAREVPETAAFEYWGQGTLVTVSS VL: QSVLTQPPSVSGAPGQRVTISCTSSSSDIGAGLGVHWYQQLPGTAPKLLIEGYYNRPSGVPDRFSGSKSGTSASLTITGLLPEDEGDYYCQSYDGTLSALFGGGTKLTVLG", "TL1A Binding Level (Early)", 6]
]}

Task: Which TL1A Binding Level (Early) value belongs to 320-375 (antibody, human IgG1, name in Kabat numbering, V domains shown, human IgG1, lambda) VH: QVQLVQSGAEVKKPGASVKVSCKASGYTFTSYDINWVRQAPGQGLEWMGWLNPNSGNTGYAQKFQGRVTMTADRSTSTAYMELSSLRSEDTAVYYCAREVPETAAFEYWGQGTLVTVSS VL: QSVLTQPPSVSGAPGQRVTISCTSSSSDIGAGLGVHWYQQLPGTAPKLLIEGYYNRPSGVPDRFSGSKSGTSASLTITGLLPEDEGDYYCQSYDGTLSHLFGGGTKLTVLG ?
Output: -2

Task: // next record 320-418 (antibody, human IgG1, name in Kabat numbering, V domains shown, human IgG1, lambda) VH: QVQLVQSGAEVKKPGASVKVSCKASGYTKTSYDINWVRQAPGQGLEWMGWLNPNSGNTGYAQKFQGRVTMTADRSTSTAYMELSSLRSEDTAVYYCAREVPETAAFEYWGQGTLVTVSS VL: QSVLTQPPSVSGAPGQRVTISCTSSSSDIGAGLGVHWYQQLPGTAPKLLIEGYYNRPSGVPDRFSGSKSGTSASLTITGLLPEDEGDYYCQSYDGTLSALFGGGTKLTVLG
Output: 10
